Value source: paper PMC6598759

test system: bloodstream trypomastigotes form Y strain of T. cruzi; assay: In vitro trypanocidal assay; format: cell-based; conditions: Trypanosoma cruzi, read-out: IC50/24 h (concentration that produces 50% lysis of the parasites), trypomastigote forms, 37 °C
pIC50: −log10 of the molar value.
quantity-measured: pIC50

compound="Cn1cnc([N+](=O)[O-])c1-n1cccn1 [Compound 6]" experimental_system="bloodstream trypomastigotes form Y strain of T. cruzi" result="< 3.30"
compound="Cn1cnc([N+](=O)[O-])c1Nc1nnc(C(F)(F)F)[nH]1 [Compound 5]" experimental_system="bloodstream trypomastigotes form Y strain of T. cruzi" result="< 3.30"
compound="O=C(Cn1ccnc1[N+](=O)[O-])NCc1ccccc1 [Benznidazole, benznidazole]" experimental_system="bloodstream trypomastigotes form Y strain of T. cruzi" result=5.06
